Test system: IGROV1 ovarian
Experiment Description: NCI-60 one-dose screen, 48 h
Recorded Conditions: 10 µM unless noted
The panel holds about 83,000 compounds, 20% with a hit somewhere; the sample as a whole holds those more often. Active and inactive are the calls of the source. The calls were made as follows: active = growth percent below 10; inactive = the rest.
Pick one and only one: active, inactive

Completed entries (count: 4):
CCCCCCCCCCCCCC[N+](C)(C)CCCCCCCCCCCCCC: active
CC(CN1CCN(C)CC1)CN1c2ccccc2Sc2ccc(C(F)(F)F)cc21 (stereo not given): inactive
Cc1cc(N=Nc2ccc(-c3ccc(N=Nc4ccc(O)c(C(=O)O)c4)cc3)cc2)c(N)c(N=Nc2ccc(C(=O)O)cc2)c1N: inactive
COC1=CC(c2ccc[nH]2)=N/C1=C\c1[nH]c(C)c(C(=O)CCCCCCCCC(=O)O[C@H]2CC[C@H]3C4CCc5cc(O)ccc5C4CC[C@]23C)c1C (stereo not given in full): inactive

Query: Could you please tell me the result logged for `CNC(=O)c1cc(Oc2ccc(NC(=O)c3nc(S(C)(=O)=O)sc3-c3ccc(F)cc3)cc2)ccn1` in this assay?
Result: inactive

Query: Assay result, entry COc1cccc(OCC(O)CN2CCN(c3ccccc3)CC2)c1 (stereo not given) — outcome?
Result: inactive

Query: Hi, do you know how `O=C1Nc2ccccc2/C1=C/c1c[nH]c2ccccc12` came out in this test?
Result: active

====

Tested on: UACC-257 melanoma
Experiment Description: NCI-60 one-dose screen, 48 h
Recorded Conditions: 10 µM unless noted
This is part of a sample that, as a whole, favours compounds with a hit. Of some 83,000 tested, about 20% had one in any assay. Active and inactive are the calls of the source. Rule for the calls: active = growth percent below 10; inactive = the rest.
Choose one outcome from this list and give only that: active, inactive

O=C1OCC2=C1C(c1cccc(Br)c1)c1cc3c(cc1N2CCO)OCCO3 (centres undefined): inactive
c1ccc(-c2[nH]c3ccccc3c2-c2ccccc2)cc1: inactive
COc1ccc(Nc2ncnc3c2sc2nc(C)cc(C)c23)cc1: inactive

Query: Write down the call the test reported for this molecule. Item: OC(c1cc2c(Cl)cc(Cl)cc2c2cc(C(F)(F)F)ccc12)C1CCCCN1 (centres undefined)
Result: active

Query: Can you look up the reported call for `CC[C@H](Nc1nc(N)nc(C2CC2)c1C#N)c1nc2cccc(NCc3ccc(C(=O)NO)cc3)c2c(=O)n1-c1ccccc1` for me?
Result: active

Query: What did the test return for `CC1=NN(c2cccc(S(N)(=O)=O)c2)C(=O)C1` ?
Result: inactive

Query: Could you please tell me the result logged for COc1cc(NC(C)CCCN)c2ncccc2c1Sc1ccc(Cl)cc1 (centres undefined) in this assay?
Result: inactive

Query: Which result was noted for this molecule in the test: `ClCc1cccc(CSc2ncnc3c2ncn3Cc2cccc(CCl)c2)c1`
Result: inactive

Query: Please state the recorded outcome for this molecule: COc1ccc(C2CC(c3cccc(Nc4ccnc5cc(Cl)ccc45)c3)=NN2c2ccc(Cl)cc2)cc1 (centres undefined)
Result: inactive

Query: Status in this test for `O=[N+]([O-])c1cc(F)c2cccnc2c1O` ?
Result: inactive

====

System: PC-3 prostate
Experiment Description: NCI-60 one-dose screen, 48 h (100 = growth as untreated, 0 = no growth, -100 = all killed)
Recorded Conditions: 10 µM unless noted
This is part of a sample that, as a whole, favours compounds with a hit. Of some 83,000 tested, about 20% had one in any assay.
Attribute Measured: growth (%)
Report only the number, with the unit % understood.

Below are worked cases with known answers.
COc1ccc2c(c1)CCCC21C(=O)Nc2ccccc21 (stereo not given): 104
[Ag].[Ag].[NH-]S(=O)(=O)c1ccc(N=Nc2cc(N=Nc3ccc(S([NH-])(=O)=O)cc3)c3c(NC(=O)C(Cl)Cl)cccc3c2OC(=O)C(Cl)Cl)cc1.[c-]1nccs1.[c-]1nccs1: 48.2
Cc1nn(-c2ccc(Cl)cc2)c(=O)n1CCN1CCOCC1: 80.8

Query: Name the value of growth reported for `Cn1nc(C(F)(F)F)cc1-c1cc(Cl)c(OCc2ccc(Cl)cc2)c(-c2ccc(Cl)c(C(F)(F)F)c2)c1O` when tested on PC-3 prostate.
Result: 7.86

Query: State recorded growth with PC-3 prostate, entry `C=CCN(CCOC(=O)c1ccc([N+](=O)[O-])cc1)CCOC(=O)c1ccc([N+](=O)[O-])cc1` , no comment.
Result: 85.4

Query: // fetch growth for `Clc1cc(Br)ccc1-c1ccc(CNCC2CCNCC2)o1` ; system: PC-3 prostate
Result: 54.1

Query: Fetch value of growth on PC-3 prostate for `O=c1[nH]c2cc(Cl)c(Cl)cc2o1` .
Result: 64.6

Query: Please report the measured growth for `Nc1nc(N)c2cc(CNc3ccc(Cl)c(Cl)c3)ccc2n1` tested on PC-3 prostate.
Result: 22.5

Query: Give reported growth for `Nc1nc2ccc([C@@H]3Nc4ccc5[nH]ncc5c4[C@H]4[C@H]5CCC(C5)[C@H]43)cc2s1` (PC-3 prostate)
Result: 6.63

Query: For PC-3 prostate, give growth of the listed molecule: `Cc1c(O)c(=O)n(-c2ccccc2)n1C`
Result: 92

====

Here the recorded growth is given for each entry.
Test system: A549/ATCC NSCLC
Experiment Description: NCI-60 one-dose screen, 48 h (100 = growth as untreated, 0 = no growth, -100 = all killed)
Recorded Conditions: 10 µM unless noted
About 83,000 compounds went through this panel and 20% of them were active in at least one assay; those are over-represented in the sample as a whole. Calls of active or inactive are those of the source. The calls were made as follows: active = growth percent below 10; inactive = the rest.

Worked cases, growth given:
Cc1cc(C)c2c(NC(=O)Nc3ccc(Cl)c(Cl)c3)n[nH]c2n1: 101% (inactive)
C=C(C)c1ccc(/C=N/NC(N)=S)cc1: 118% (inactive)
CCN(CC)C(Cl)=Nc1ccc(Cl)cc1: 97.3% (inactive)
NC(N)=N/N=C/c1ccccc1: 97.4% (inactive)
C/C(CC(=O)NNc1ccc([N+](=O)[O-])cc1)=N\Nc1ccc([N+](=O)[O-])cc1: 56.1% (inactive)

Query: State, for A549/ATCC NSCLC, measured growth of the compound listed here: `Cc1ccc(NC(=O)c2[nH]c(SCCN(C)C)nc2-c2ccc(F)cc2)cc1C#Cc1cnc2cccnn12`
Result: 5.21% (active)

Query: // output growth; input `Cc1c(-c2ccc(-c3ccccc3F)cc2)nc2ccc(F)cc2c1C(=O)O` ; system A549/ATCC NSCLC
Result: 34.7% (inactive)

====

Tested on: UACC-257 melanoma
Experiment Description: NCI-60 one-dose screen, 48 h (100 = growth as untreated, 0 = no growth, -100 = all killed)
Recorded Conditions: 10 µM unless noted
Compounds without any hit were thinned out: in the full panel of roughly 83,000, 20% have a hit.
Measured growth of individual entries
State the answer as a number, implicitly in %.

c1ccc2c(c1)cnc1ccccc12: 103
Nc1nc2c(c3ncccc13)C(c1ccccc1)Cc1ncccc1-2 (stereo not given): 93.1

Query: // fetch growth given entry `CCn1c(CN2CCN(Cc3ccccc3)CC2)nc2cc(NC(=O)c3cccs3)ccc21`
Result: -80.1

====

System: 786-0 renal
Experiment Description: NCI-60 one-dose screen, 48 h
Recorded Conditions: 10 µM unless noted
About 83,000 compounds went through this panel and 20% of them were active in at least one assay; those are over-represented in the sample as a whole. Calls of active or inactive are those of the source. Rule for the calls: active = growth percent below 10; inactive = the rest.
Valid outcomes are listed here; reply with one: 1 = active, 0 = inactive

Worked examples, 3 molecules total:
CCCc1n(Cc2ccc3ccccc3n2)cc[n+]1Cc1ccc2ccccc2n1: 0
COc1ccc(C(=O)C(CN(C)C)c2ccccc2)cc1 (stereo not given): 1
CCCCCCCCCCCCCC[N+](C)(C)CCCCCCCCCCCCCC: 0

Query: For this molecule, state the assay outcome: C#CC[C@@H]1C[C@]2(C)[C@H]3CC[C@@H]4[C@H]5C(C(=C)C)CC[C@]5(C(=O)NCCCN5CCN(CCCN)CC5)CC[C@@]4(C)[C@]3(C)CC[C@H]2C(C)(C)[C@H]1OC(C)=O (stereo not given in full)
Result: 1

Query: Which result was noted for this molecule in the test: `COS(=O)(=O)CCN(CCOS(C)(=O)=O)S(C)(=O)=O`
Result: 0

====

System: HOP-92 NSCLC
Experiment Description: NCI-60 one-dose screen, 48 h (100 = growth as untreated, 0 = no growth, -100 = all killed)
Recorded Conditions: 10 µM unless noted
Compounds without any hit were thinned out: in the full panel of roughly 83,000, 20% have a hit.
Attribute Measured: growth (%)
Just the number in %, nothing appended.

Field: example entries. Status: answers known.
CCN(C)CCCOc1ccc(/C(=C(\C)Cc2cccc(OC)c2)c2ccc(OC(C)=O)cc2)cc1: 99.2
CC(C)(C)CC(C)(C)NCc1cc(C(C)(C)C)cc(CNC(C)(C)CC(C)(C)C)c1O: -1.38
Cc1cc(O)c(C2=NN(c3ccc(S(N)(=O)=O)cc3)C(c3ccc(Cl)cc3)C2)c(C)c1Cl (stereo not given): 21.3
Nc1c(C(=O)c2ccc(Br)cc2)sc2nc3c(cc12)CCCC3: 89.2
O=[N+]([O-])c1cccc([I+]c2ccccc2)c1: 93.6

Query: Give a short answer stating reported growth for `Cc1cc2nc3c(=O)[nH]c(=O)nc-3n(CC=O)c2cc1C` .
Result: 293

Query: Give recorded growth. `Cc1[nH]nc2ccc3nc(-c4ccc5[nH]ncc5c4)c4c(c3c12)CCCC4`
Result: 2.41

Query: Given the compound `CC(=O)[C@H]1CC[C@H]2[C@@H]3CC[C@H]4CC=CC[C@]4(C)[C@H]3CC[C@]12C` , write its reported growth.
Result: 101

Query: Name the recorded growth of the compound listed here: `Cc1ccc(-c2cnc3sc4ccc(Cl)cc4n23)cc1`
Result: 85.6

Query: Annotate the compound CCN(CC)CCCC(C)Nc1cnc(C(=O)Nc2cccc3ccc(OC)nc23)cn1 (stereo not given) with its measured growth.
Result: 49.5
